Tested on: Mycobacterium tuberculosis H37Rv
Experiment: Microplate Alamar Blue assay (MABA) MIC, M. tuberculosis
Type: cell-based
Conditions: read-out: MIC Mycobacterium tuberculosis H37Rv
Cut-off 3 µg/mL on MIC: below means Fulfilled, at or above means Not fulfilled.

// known answers, use as guide
>  <MOLECULE>
Cc1ccccc1NC(=O)C(Cc1ccc(O)cc1)NC(=O)c1ccccc1F (stereo not shown) [IX-54]

>  <SUBJECT_OF_TEST>
Mycobacterium tuberculosis H37Rv

>  <CLASS_ASSIGNMENT>
Not fulfilled

$$$$
>  <MOLECULE>
Cc1c(NC(=O)C(Cc2ccccc2)NC(=O)c2ccccc2)cccc1C(F)F (stereo not shown) [I-149]

>  <SUBJECT_OF_TEST>
Mycobacterium tuberculosis H37Rv

>  <CLASS_ASSIGNMENT>
Not fulfilled

$$$$
>  <MOLECULE>
O=C(NC(Cc1ccccc1)C(=O)Nc1cccc2cnccc12)c1ccccc1Cl (stereo not shown) [IX-63]

>  <SUBJECT_OF_TEST>
Mycobacterium tuberculosis H37Rv

>  <CLASS_ASSIGNMENT>
Not fulfilled

$$$$
>  <MOLECULE>
O=C(NC(Cc1ccccc1)C(=O)Nc1cccc2sccc12)c1ccccc1 (stereo not shown) [II-46]

>  <SUBJECT_OF_TEST>
Mycobacterium tuberculosis H37Rv

>  <CLASS_ASSIGNMENT>
Not fulfilled

$$$$
>  <MOLECULE>
Cc1ccccc1C(=O)NC(Cc1ccccc1)C(=O)Nc1cc(F)ccc1N1CCNCC1 (stereo not shown) [IX-215]

>  <SUBJECT_OF_TEST>
Mycobacterium tuberculosis H37Rv

>  <CLASS_ASSIGNMENT>
Fulfilled

$$$$

Query: For O=C(NC(Cc1ccccc1)C(=O)Nc1cccc2[nH]ccc12)c1ccccc1F (stereo not shown) [IX-91] , is the recorded MIC below the cut-off of 3 µg/mL?
Response: Not fulfilled

Query: For O=C(NC(Cc1ccccc1)C(=O)Nc1ccccc1-n1cncn1)c1ccccc1 (stereo not shown) [I-203] , is the recorded MIC below the cut-off of 3 µg/mL?
Response: Not fulfilled

Query: For Cc1ccccc1NC(=O)C(Cc1ccccc1)NC(=O)c1cccc2[nH]ccc12 (stereo not shown) [II-39] , is the recorded MIC below the cut-off of 3 µg/mL?
Response: Not fulfilled

Query: For CC(=O)Oc1ccc(CC(NC(=O)c2ccccc2C)C(=O)Nc2ccccc2N2CCOCC2)cc1 (stereo not shown) [IX-181] , is the recorded MIC below the cut-off of 3 µg/mL?
Response: Fulfilled

Query: For O=C(NC(Cc1ccccc1)C(=O)Nc1ccccc1C(F)F)c1ccccc1 (stereo not shown) [I-148] , is the recorded MIC below the cut-off of 3 µg/mL?
Response: Not fulfilled
